Each item that follows carries a reported MIC.
System: Streptococcus pneumoniae
Test: In vitro antibacterial activity of 5979 strain of Gram positive bacteria Streptococcus pneumoniae
Assay type: functional

{"givenSmiles": "CC[C@H]1OC(=O)/C(C)=C/[C@H](C)[C@@H](O[C@@H]2O[C@H](C)C[C@H](N(C)C)[C@H]2O)[C@@](C)(OC)C[C@@H](C)C(=O)[C@H](C)[C@H]2N(NCc3ccc(O)c(O)c3)C(=O)O[C@]12C", "testedOn": "Streptococcus pneumoniae", "MIC": "> 128 µg/mL"}
{"givenSmiles": "CC[C@H]1OC(=O)/C(C)=C/[C@H](C)[C@@H](O[C@@H]2O[C@H](C)C[C@H](N(C)C)[C@H]2O)[C@@](C)(OC)C[C@@H](C)C(=O)[C@H](C)[C@H]2N(NC/C=C/c3ccc(N)cc3)C(=O)O[C@]12C", "testedOn": "Streptococcus pneumoniae", "MIC": "> 128 µg/mL"}
